These entries and their values trace back to patent US20200181255A1.

# test_target: T1, Native human IL-23 (human, UniProt Q9NPF7 20-189; P29460 23-328)
# T1 sequence 1: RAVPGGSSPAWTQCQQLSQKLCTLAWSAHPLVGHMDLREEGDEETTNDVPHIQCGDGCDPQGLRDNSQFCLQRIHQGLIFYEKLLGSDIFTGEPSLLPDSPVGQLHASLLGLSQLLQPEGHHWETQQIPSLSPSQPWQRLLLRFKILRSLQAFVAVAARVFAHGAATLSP
# T1 sequence 2: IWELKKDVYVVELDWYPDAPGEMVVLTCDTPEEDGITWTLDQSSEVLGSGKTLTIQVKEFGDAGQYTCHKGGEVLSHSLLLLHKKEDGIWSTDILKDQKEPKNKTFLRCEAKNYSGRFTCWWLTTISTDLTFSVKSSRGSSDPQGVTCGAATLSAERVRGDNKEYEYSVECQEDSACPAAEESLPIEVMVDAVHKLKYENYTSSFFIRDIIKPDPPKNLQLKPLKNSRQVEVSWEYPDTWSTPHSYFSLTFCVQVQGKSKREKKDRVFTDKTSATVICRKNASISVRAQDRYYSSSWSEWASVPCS
# experiment_summary: cell-based or functional assay
Task for the reader: assign each of the following binders its reported IC50 (pM), STAT-luciferase assay.
Number in pM, nothing else.

q: Can you share its IC50 (pM), STAT-luciferase assay? I mean this binder: Antibody I (antibody, V domains shown) VH: QVQLQESGPGLVKPSETLSLTCTVSGGSISTYYWSWIRQPAGKGLEWIGLIYTSGSTNYNPSLKSRVTMSLDTSKNQFSLRLTSVTAADTAVYYCARDRGYYYGVDVWGQGTTVTVSS VL: DIQLTPSPSSVSASVGDRVTITCRASQGIAGWLAWYQQKPGKAPKLLIYAASSLQSGVPSRFSGSGSGTDFTLTISSLQPEDFATYYCQQADSFPPTFGGGTKVEIK
a: 208

q: Further, for Antibody A (antibody, V domains shown) VH: QVQLQESGPGLVKPSQTLSLTCTVSGGSISSGGYYWSWIRQHPGKGLEWIGYIYYSGSTYYNPSLKSRVTMSVDTSKNQFSLKLSSVTAADTAVYYCAKNRGFYYGMDVWGQGTTVTVSS VL: DIQLTQSPSSVSASVGDRVTITCRASQVISSWFAWYQQKPGKAPNLLIYAASSLQSGVPSRFSGSGSGTDFTLTISSLQPADFATYFCQQANSFPFTFGPGTKVDVK ?
a: 114

q: Further, for Antibody H (antibody, V domains shown) VH: QVQLQESGPGLVKPSQTLSLTCTVSGGSISSGGYYWTWIRQHPGKGLEWIGYIYYSGNTYYNPSLKSRITISVDTSKNQFSLSLSSVTAADTAVYYCARNRGYYYGMDVWGQGTTVTVSS VL: DIQMTQSPSSVSASVGDRVTITCRASQGFSGWLAWYQQKPGKAPKLLIYAASSLQSGVPSRFSGSGSGTDFTLTISSLQPEDFATYYCQQANSFPFTFGPGTKVDIK ?
a: 192

q: Further, for Antibody G (antibody, V domains shown, also called VH12/VL12) VH: QVQLQESGPRLVKPSETLSLTCTVSGDSISSYFWSWIRQPPGKGLEWLGYIYYSGSTNYNPSLKSRVTISIDTSKNQFSLKLSSVTAADTAVYYCTRDRGSYYGSDYWGQGTLVTVSS VL: DIQMTQSPSSVSASVGDRVTITCRAGQVISSWLAWYQQKPGKAPKLLIYAASSLQSGVPSRFSGSGSGTDFTLTISSLQPDDFATYYCQQATSFPLTFGGGTKVEIK ?
a: 156

q: Further, for Antibody M (antibody, V domains shown) VH: EVQLVESGGGLVQPGGSLRLSCAASGFTFSSYSMNWVRQAPGKGLEWVSYISSRSSTIYIADSVKGRFTISRDNAKNSLYLQMNSLRDEDTAVYYCARRIAAAGGFHYYYALDVWGQGTTVTVSS VL: QPVLTQPPSASASLGASVTLTCTLNSGYSDYKVDWYQQRPGKGPRFVMRVGTGGIVGSKGDGIPDRFSVLGSGLNRYLTIKNIQEEDESDYHCGADHGSGSNFVYVFGTGTKVTVL ?
a: 34

q: Further, for Antibody N (antibody, V domains shown) VH: EVQLVESGGGLVQPGGSLRLSCAASGFTFSTYSMNWVRQAPGKGLEWVSYISSSSSTRYHADSVKGRFTISRDNAKNSLYLQMNSLRDEDTAVYYCARRIAAAGPWGYYYAMDVWGQGTTVTVSS VL: QPVLTQPPSASASLGASVTLTCTLSSGYSDYKVDWYQQRPGKGPRFVMRVGTGGIVGSKGEGIPDRFSVLGSGLNRYLTIKNIQEEDESDYHCGADHGSGNNFVYVFGTGTKVTVL ?
a: 361

q: Further, for Antibody E (antibody, V domains shown) VH: QVQLVESGGGVVQPGRSLRLSCAASGFTFSSYGMHWVRQAPGKGLEWVAVIWYDGSNEYYADSVKGRFTISRDNSKNTLYLQMNSLRAEDTAVYYCARDRGYTSSWYPDAFDIWGQGTMVTVSS VL: QSVLTQPPSVSGAPGQRVTISCTGSSSNTGAGYDVHWYQQVPGTAPKLLIYGSGNRPSGVPDRFSGSKSGTSASLAITGLQAEDEADYYCQSYDSSLSGWVFGGGTRLTVL ?
a: 140

q: Further, for Antibody B (antibody, V domains shown, also called VH9/VL9) VH: QVQLQESGPGLVKPSQTLSLTCTVSGGSISSGGYYWSWIRQHPGKGLEWIGHIHYSGNTYYNPSLKSRVTISVDTSKNQFSLKLSSVTAADTAVYYCAKNRGFYYGMDVWGQGTTVTVSS VL: DIQMTQSPSSVSASVGDRVTITCRASQVISSWLAWYQQKPGKAPSLLIYAASSLQSGVPSRFSGSVSGTDFTLTISSLQPEDFATYYCQQANSFPFTFGPGTKVDFK ?
a: 45

q: Further, for Antibody J (antibody, V domains shown) VH: QVQLVESGGGVVQPGRSLRLSCAASGFTFSSYGMHWVRQAPGKGLEWVAVISFDGSLKYYADSVKGRFTISRDNSKNTLYLQMNSLRAEDTAVYYCARERTTLSGSYFDYWGQGTLVTVSS VL: QAVLTQPSSLSASPGASASLTCTLRSGINVGTYRIYWYQQKPGSPPQYLLRYKSDSDKQQGSGVPSRFSGSKDASANAGILLISGLQSEDEADYYCMIWHSSASVFGGGTKLTVL ?
a: 83

q: Further, for Antibody K (antibody, V domains shown) VH: EVQLVESGGGLVQPGGSLRLSCVVSGFTFSSFSMNWVRQAPGKGLEWVSYISSRSSTIYYADSVKGRFTISRDNAKNSLYLQMNSLRDEDTAVYYCARRIAAAGPWGYYYAMDVWGQGTTVTVSS VL: QPELTQPPSASASLGASVTLTCTLSSGYSDYKVDWYQLRPGKGPRFVMRVGTGGTVGSKGEGIPDRFSVLGSGLNRSLTIKNIQEEDESDYHCGADHGSGSNFVYVFGTGTKVTVL ?
a: 71

q: Further, for Antibody L (antibody, V domains shown, also called VH4/VL4) VH: QVQLVESGGGVVQPGRSLRLSCAASGFTFSSYAMHWVRQAPGKGLEWLSVISHDGSIKYYADSVKGRFTISRDNSKNTLYLQMNSLRAEDTAVYYCARERTTLSGSYFDYWGQGTLVTVSS VL: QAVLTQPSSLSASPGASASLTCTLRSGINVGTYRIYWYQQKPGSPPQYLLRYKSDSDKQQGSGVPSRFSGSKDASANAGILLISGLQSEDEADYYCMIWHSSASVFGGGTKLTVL ?
a: 113
